Value source: patent US9611303B2

Catalogue of molecules with associated Sephacryl (mL), elution peak position
# protocol-description: Subunit association by FPLC on Sephacryl S-100HR
# Assay type: physicochemical
# condition-summary: tetramer 44 to 47 mL, dimer 51 to 54 mL, monomer 63 to 66 mL
endpoint-name: Sephacryl (mL), elution peak position

[[record]]
molecule = "TM2 T78A-D116A: TM2 with 78th threonine and 116th aspartic acid replaced with alanine; SEQ ID NO: 22 (protein, Synthetic TM2 T78A-D116A) MSDVQSSLTGTWYNELNSKMELTANKDGTLTGKYLSKVGDVYVPYPLSGRYNLQPPAGQGVALGWAVSWENSKIHSAATWSGQFFSESSPVILTQWLLSSSTARGDVWESTLVGNASFTKTAPTEQQIAHAQLHCRAPRLK"
endpoint_name = "Sephacryl (mL), elution peak position"
experimental_result = 46.37

[[record]]
molecule = "TM2 D116A: TM2 in which the 116th aspartic acid was replaced with alanine; SEQ ID NO: 12 (protein, Synthetic TM2 D116A) MSDVQSSLTGTWYNELNSKMELTANKDGTLTGKYLSKVGDVYVPYPLSGRYNLQPPAGQGVALGWAVSWENSKIHSATTWSGQFFSESSPVILTQWLLSSSTARGDVWESTLVGNASFTKTAPTEQQIAHAQLHCRAPRLK"
endpoint_name = "Sephacryl (mL), elution peak position"
experimental_result = 46.22

[[record]]
molecule = "TM2P46T-T78A: TM2 with 46th proline replaced with threonine and 78th threonine with alanine; SEQ ID NO: 14 (protein, Synthetic TM2 P46T-T78A) MSDVQSSLTGTWYNELNSKMELTANKDGTLTGKYLSKVGDVYVPYTLSGRYNLQPPAGQGVALGWAVSWENSKIHSAATWSGQFFSESSPVILTQWLLSSSTARGDVWESTLVGNDSFTKTAPTEQQIAHAQLHCRAPRLK"
endpoint_name = "Sephacryl (mL), elution peak position"
experimental_result = 46.05

